testedOn: POS-1 (Caenorhabditis elegans) binding to mex-3 RNA
protocolDescription: C. elegans POS-1 RNA interaction disruptors – biochemical, fluorescence polarization, cherry-picked samples, set 2, counter-screen for MEX-5 RNA-binding inhibitor project, dose response (AID 493130);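 note: POS-1 as maltose binding protein fusion made in E. coli with FITC RNA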
conditionInfo: POS-1/mex-3 RNA fluorescence polarization, 1 h; at 10 µM (top of the series)
Records with an inconclusive call do not appear. Activity calls are given as the source filed them.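 Rule for the calls: active = signal-lowering compounds whose fitted half-maximal concentration is at most ten times their highest tested dose; inconclusive = flat fit between -30 and -70%, or poor fit; inactive = flat within 30%, signal rising, or potency beyond limit.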
endpointLabel: activity change, negative = inhibition

As a guide, the following entries are already answered.
[
  {
    "compound": "CC(C)(C)CC(C)(C)NCC(O)COc1ccc2c(c1)CCC2 (configuration not stated)",
    "testedOn": "POS-1 (Caenorhabditis elegans) binding to mex-3 RNA",
    "endpointLabel": "activity change, negative = inhibition",
    "valueObserved": "inactive"
  },
  {
    "compound": "Cc1c(NC(=O)c2ccc(=O)oc2)c(=O)n(-c2ccccc2)n1C",
    "testedOn": "POS-1 (Caenorhabditis elegans) binding to mex-3 RNA",
    "endpointLabel": "activity change, negative = inhibition",
    "valueObserved": "inactive"
  },
  {
    "compound": "Nc1nonc1C(=O)N/N=C/c1cc(Br)ccc1O",
    "testedOn": "POS-1 (Caenorhabditis elegans) binding to mex-3 RNA",
    "endpointLabel": "activity change, negative = inhibition",
    "valueObserved": "inactive"
  },
  {
    "compound": "Cc1cccc(C(=O)NNC(=O)c2csc(N3CCOCC3)n2)c1C",
    "testedOn": "POS-1 (Caenorhabditis elegans) binding to mex-3 RNA",
    "endpointLabel": "activity change, negative = inhibition",
    "valueObserved": "inactive"
  },
  {
    "compound": "Cc1ccc([C@@H]2C3COCC=C3C(C#N)=C(N)C2(C#N)C#N)o1 (some centres not stated)",
    "testedOn": "POS-1 (Caenorhabditis elegans) binding to mex-3 RNA",
    "endpointLabel": "activity change, negative = inhibition",
    "valueObserved": "inactive"
  }
]

We now examine a further compound.
Prompt: Give activity change, negative = inhibition for COc1ccc(/C=C2\CCCc3c2nc2ccc(C)cc2c3C(=O)O)cc1O
Completion: inactive
